Listed next: entries and their corresponding T/C.
test system: L1210 leukemia ip in BDF1 mice, survival T/C; assay: NCI In Vivo Anticancer Drug Screen. Data for tumor model L1210 Leukemia (intraperitoneal) in B6D2F1 (BDF1) mice; conditions: endpoint: mean survival time; dose: 50.0 mg/kg/injection; schedule: Q01DX009 (ip); vehicle: saline with Tween-80; higher = longer survival
Toxic doses and inconclusive results are not listed.
MEASUREMENT_TYPE: T/C

{"LINE_NOTATION": "CC(C)(C)c1ccc(N)c([N+](=O)[O-])c1", "EXPERIMENTAL_TARGET": "L1210 leukemia ip in BDF1 mice, survival T/C", "READOUT_VALUE": "102 % of control"}
{"LINE_NOTATION": "CN(C)C=NCCNc1ccc([N+](=O)[O-])cn1", "EXPERIMENTAL_TARGET": "L1210 leukemia ip in BDF1 mice, survival T/C", "READOUT_VALUE": "100 % of control"}
{"LINE_NOTATION": "CCCCOC(=O)C=O", "EXPERIMENTAL_TARGET": "L1210 leukemia ip in BDF1 mice, survival T/C", "READOUT_VALUE": "106 % of control"}

====

Listed next: entries and their corresponding T/C.
system: L1210 leukemia ip in BDF1 mice, survival T/C; assay: NCI In Vivo Anticancer Drug Screen. Data for tumor model L1210 Leukemia (intraperitoneal) in B6D2F1 (BDF1) mice; details: endpoint: mean survival time; dose: 75.0 mg/kg/injection; schedule: Q01DX001 (ip); vehicle: saline; higher = longer survival
Inconclusive results and toxic doses are left out.
MEASUREMENT_TYPE: T/C

{"COMPOUND": "O=S(=O)(OCCNc1ccccc1)c1ccccc1", "EXPERIMENTAL_TARGET": "L1210 leukemia ip in BDF1 mice, survival T/C", "READOUT_VALUE": "101 % of control"}
{"COMPOUND": "CCCCC(CCCC)NC(C)CO (stereo not given)", "EXPERIMENTAL_TARGET": "L1210 leukemia ip in BDF1 mice, survival T/C", "READOUT_VALUE": "102 % of control"}
{"COMPOUND": "C=C(C)C1(CC)C(=O)NC(=O)N(C)C1=O (stereo not given)", "EXPERIMENTAL_TARGET": "L1210 leukemia ip in BDF1 mice, survival T/C", "READOUT_VALUE": "97 % of control"}
{"COMPOUND": "CC1C(=O)OC2C1CCC1(C)C3(C)C(=O)C=CC213 (stereo not given)", "EXPERIMENTAL_TARGET": "L1210 leukemia ip in BDF1 mice, survival T/C", "READOUT_VALUE": "97 % of control"}
{"COMPOUND": "CCCCCCCCCCNCCC(=O)O", "EXPERIMENTAL_TARGET": "L1210 leukemia ip in BDF1 mice, survival T/C", "READOUT_VALUE": "101 % of control"}

====

Listed next: entries and their corresponding T/C.
Tested on: L1210 leukemia ip in BDF1 mice, survival T/C
Assay: NCI In Vivo Anticancer Drug Screen. Data for tumor model L1210 Leukemia (intraperitoneal) in B6D2F1 (BDF1) mice
Details: endpoint: mean survival time; dose: 100.0 mg/kg/injection; schedule: Q01DX009 (ip); vehicle: saline with Tween-80; higher = longer survival
Procedure: The antitumor activity of compounds was measured in mice bearing transplantable tumors. Survival or tumor size were measured and the results are expressed as the measurement made in the treated group (T) divided by the measurement made in the vehicle treated control group (C). The tumor model used in this assay is L1210 Leukemia (intraperitoneal) in B6D2F1 (BDF1) mice
Inconclusive results and toxic doses are left out.
MEASUREMENT_TYPE: T/C

{"COMPOUND": "Clc1nc(Cl)c(Cl)c(C(Cl)(Cl)Cl)n1", "MEASUREMENT_TYPE": "T/C", "READOUT_VALUE": "87 % of control"}
{"COMPOUND": "CCc1ccc(C(C)(C)C)cc1", "MEASUREMENT_TYPE": "T/C", "READOUT_VALUE": "95 % of control"}
{"COMPOUND": "CC(C)c1cc[n+]([O-])cc1", "MEASUREMENT_TYPE": "T/C", "READOUT_VALUE": "94 % of control"}
{"COMPOUND": "CC1(C)SC(C(NC(=O)Cc2ccccc2)C(=O)O)NC1C(=O)O (configuration not stated)", "MEASUREMENT_TYPE": "T/C", "READOUT_VALUE": "92 % of control"}
{"COMPOUND": "CC(C)(C1c2ccccc2C(=NO)c2ccccc21)[N+](=O)[O-] (configuration not stated)", "MEASUREMENT_TYPE": "T/C", "READOUT_VALUE": "98 % of control"}
{"COMPOUND": "Cc1cccc(C)c1NC(=O)c1ccccc1Cl", "MEASUREMENT_TYPE": "T/C", "READOUT_VALUE": "104 % of control"}
{"COMPOUND": "O=C(O)c1cc(C(=O)O)cc(S(=O)(=O)F)c1", "MEASUREMENT_TYPE": "T/C", "READOUT_VALUE": "92 % of control"}
{"COMPOUND": "CCOC(=O)c1cnc(SC)nc1Sc1ccc(Cl)cc1", "MEASUREMENT_TYPE": "T/C", "READOUT_VALUE": "96 % of control"}
{"COMPOUND": "Cc1ccc(NC(=O)COc2ccc(Cl)cc2Cl)c(C)c1", "MEASUREMENT_TYPE": "T/C", "READOUT_VALUE": "104 % of control"}
{"COMPOUND": "CN(C)/N=N/c1nc[nH]c1C#N", "MEASUREMENT_TYPE": "T/C", "READOUT_VALUE": "107 % of control"}
{"COMPOUND": "COc1ccc(C(C)(C)CC(=O)O)cc1", "MEASUREMENT_TYPE": "T/C", "READOUT_VALUE": "100 % of control"}
{"COMPOUND": "CCN(CC)CC(=O)NCC(CCN(C)C)(CCN(C)C)c1cccc2ccccc12", "MEASUREMENT_TYPE": "T/C", "READOUT_VALUE": "93 % of control"}

====

tested on: L1210 leukemia ip in BDF1 mice, survival T/C; experiment: NCI In Vivo Anticancer Drug Screen. Data for tumor model L1210 Leukemia (intraperitoneal) in B6D2F1 (BDF1) mice; settings: endpoint: mean survival time; dose: 400.0 mg/kg/injection; schedule: Q01DX009 (ip); vehicle: Klucel (hydroxypropylcellulose) (HPC); higher = longer survival
Toxic doses and inconclusive results are not listed.

{"LINE_NOTATION": "S=C(Nc1ccccc1)Nc1ccccc1S", "T/C": "92 % of control"}
{"LINE_NOTATION": "CSc1nsc(SC)c1C#N", "T/C": "92 % of control"}
{"LINE_NOTATION": "C/C(=C\\c1ccccc1)C(=O)c1ccccc1", "T/C": "105 % of control"}

====

System: L1210 leukemia ip in BDF1 mice, survival T/C
Test: NCI In Vivo Anticancer Drug Screen. Data for tumor model L1210 Leukemia (intraperitoneal) in B6D2F1 (BDF1) mice
Details: endpoint: mean survival time; dose: 400.0 mg/kg/injection; schedule: Q01DX001 (ip); vehicle: Klucel (hydroxypropylcellulose) (HPC); higher = longer survival
Experimental: The antitumor activity of compounds was measured in mice bearing transplantable tumors. Survival or tumor size were measured and the results are expressed as the measurement made in the treated group (T) divided by the measurement made in the vehicle treated control group (C). The tumor model used in this assay is L1210 Leukemia (intraperitoneal) in B6D2F1 (BDF1) mice
Inconclusive results and toxic doses are left out.
Listed next: entries and their corresponding T/C.

{"MOLECULE": "O=C1CC2CC(=O)CC2C1 (stereo not given)", "T/C": "98 % of control"}
{"MOLECULE": "COc1c(F)c(F)c(Oc2c(F)c(F)c(OC)c(F)c2F)c(F)c1F", "T/C": "94 % of control"}
{"MOLECULE": "O=C(O)c1ccccc1Cc1cccc2c(Cl)cccc12", "T/C": "101 % of control"}
{"MOLECULE": "CN(C)CCCN=NNc1nc[nH]c1C(N)=O", "T/C": "95 % of control"}
{"MOLECULE": "COC(=O)c1ccc(C(=O)NCCCc2c(C)nc(N)[nH]c2=O)cc1", "T/C": "92 % of control"}

====

Listed next: entries and their corresponding T/C.
tested on: L1210 leukemia ip in BDF1 mice, survival T/C; assay: NCI In Vivo Anticancer Drug Screen. Data for tumor model L1210 Leukemia (intraperitoneal) in B6D2F1 (BDF1) mice; details: endpoint: mean survival time; dose: 25.0 mg/kg/injection; schedule: Q04DX002 (ip); vehicle: Klucel (hydroxypropylcellulose) (HPC); higher = longer survival
Inconclusive results and toxic doses are left out.

{"COMPOUND": "CC(C)(C)C(=O)C(Br)Br", "T/C": "101 % of control"}
{"COMPOUND": "COc1cccc(NC(=S)NN)c1", "T/C": "117 % of control"}
{"COMPOUND": "O=C(O)c1cccc(N2C(=O)C=CC2=O)c1", "T/C": "101 % of control"}
{"COMPOUND": "CCC1SC(=S)N(C(=O)c2ccc([N+](=O)[O-])cc2)C1CC (configuration not stated)", "T/C": "111 % of control"}
{"COMPOUND": "CN(C)C(=S)SSSC(=S)N(C)C", "T/C": "101 % of control"}
{"COMPOUND": "O=[N+]([O-])c1ccc(N/N=C/C23CC4CC(CC(C4)C2)C3)c([N+](=O)[O-])c1", "T/C": "94 % of control"}
{"COMPOUND": "CCCCCCCCCCC(N)C(=O)O (configuration not stated)", "T/C": "91 % of control"}
